- Tested on: HOP-62 NSCLC
- TEST_NAME: NCI tumour cell line growth inhibition, 48 h
MEASURED_PROPERTY: GI50

Record O=C(Cc1csc2nc(-c3ccc(Br)cc3)cn12)N/N=C/c1ccccc1O . Reported GI50: 3.88 µM

Record O=C(/C=C/c1ccccn1)c1ccccc1 . Reported GI50: 10.2 µM

Record COc1ccc(-c2nc3sccn3c2/C=C/C(=O)c2cc(OC)c(OC)c(OC)c2)cc1 . Reported GI50: 2.53 µM

Record COc1cc(C(=O)/C=C/c2c(C)n([O-])c3ccc(Cl)cc3[n+]2=O)cc(OC)c1OC . Reported GI50: 21.6 µM

Proceed to the following item.
Record COc1cc(C(=O)Nc2ccc(-c3nc4ccccc4[nH]3)cc2)cc(OC)c1OC . Reported GI50: 6.44 µM

====

- Tested on: HS 578T breast
- TEST_NAME: NCI tumour cell line growth inhibition, 48 h
MEASURED_PROPERTY: TGI (µM)
Reply numerically in µM, unit not repeated.

Record O=C(Cc1csc2nc(-c3ccc(Br)cc3)cn12)N/N=C/c1ccccc1O . Reported TGI: 42.3

Record CC1CC(C)(C)CC(OCCN2CCCCC2)(c2ccccc2)C1 (stereo not given) . Reported TGI: 32.4

Record O=C(c1ccccc1)C1C(c2ccccc2[N+](=O)[O-])N1C1CCCCC1 (stereo not given) . Reported TGI: 49.3

Record CCCCCCC1CCCCN1C(c1ccccc1)C(O)c1ccccc1 (stereo not given) . Reported TGI: 21.1

====

- Tested on: LOX IMVI melanoma
- TEST_NAME: NCI tumour cell line growth inhibition, 48 h
MEASURED_PROPERTY: TGI (µM)
Reply numerically in µM, unit not repeated.

For orientation, consider the following solved cases.
Record COc1cc2c(cc1OC)C(Sc1ccc(Cl)cc1)c1c(nc(N)c(C#N)c1N)O2 (stereo not given) . Reported TGI: 2.35

Record COc1ccc(C=C2C(C)=NN(c3cccc(Cl)c3)C23C(Cl)C(=O)N3c2nc3ccccc3s2)cc1 (stereo not given) . Reported TGI: 38.5

Record C=C(c1ccc(C(=O)NCCCn2ccnc2)cc1)c1cc2c(cc1C)C(C)(C)CCC2(C)C . Reported TGI: 4.48

Record Cc1cc(C)n(C(=CC(=O)C(Cl)Cl)n2nc(C)cc2C)n1 . Reported TGI: 3.67

Proceed to the following item.
Record COc1ccccc1CNCCCN1C(=O)c2ccc3c4c(ccc(c24)C1=O)C(=O)N(CCCNCCCCN)C3=O . Reported TGI: 0.557

====

- Tested on: OVCAR-3 ovarian
- TEST_NAME: NCI tumour cell line growth inhibition, 48 h
Where a SMILES comes first, the peptide text is derived from it. The star is where a group is joined. Fmoc = O=C(OCC1c2ccccc2-c2ccccc21)*; OBn = c1ccc(CO*)cc1; tBu = CC(C)(C)*
MEASURED_PROPERTY: TGI

Record CC(OC(C)(C)C)C(NC(=O)OCC1c2ccccc2-c2ccccc21)C(=O)NC(Cc1ccccc1)C(=O)OCc1ccccc1 (centres undefined) (Fmoc-Thr(tBu)-Phe-OBn; configuration not given here) . Reported TGI: > 100 µM

Record C=C(/C=C/C=C(\CO)CCC=C(C)C)[C@H]1CCC2([C@H](CCCO)/C(=C(/C)C=O)CC[C@]2(C)O)[C@H]1O (some centres undefined) . Reported TGI: > 100 µM

Record COc1ccc(-c2nc3sccn3c2/C=C/C(=O)c2cc(OC)c(OC)c(OC)c2)cc1 . Reported TGI: 7.37 µM

New cases:
Record Nc1c([N+](=O)[O-])ncn1C1OC(CO)C(O)C1O (centres undefined) . Reported TGI: > 100 µM

Record CCCCCCCC(=O)OC[n+]1cccc(-c2c(COC(=O)NC(C)C)c(COC(=O)NC(C)C)c3n2CCC3)c1 . Reported TGI: > 100 µM

Record CCOC(=O)c1c(-c2ccc(Cl)cc2)c(C#N)c(=S)n(C2OC(COC(C)=O)C(OC(C)=O)C(OC(C)=O)C2OC(C)=O)c1C (centres undefined) . Reported TGI: > 100 µM

Record COc1ccc(C2CC(c3cccc(Nc4ccncc4)c3)=NN2c2ccccc2)cc1 (centres undefined) . Reported TGI: 3.52 µM

Record Nc1cccc(C(=O)/C=C/c2ccccc2O)c1 . Reported TGI: > 100 µM

Record COc1cc(COC(=O)N(C)[C@@H](Cc2ccccc2)C(=O)O)c([N+](=O)[O-])cc1OC . Reported TGI: > 100 µM

Record COc1cc(/C=C/C(=O)/C=C/c2ccc(-n3ccnc3)cc2)ccc1O . Reported TGI: 10 µM

Record N=C(N)c1ccc(N=Nc2c(O)c(C(=O)Nc3ccccc3)cc3ccccc23)cc1 . Reported TGI: > 53.3 µM

Record COc1ccccc1-c1cc(=O)c2cccnc2[nH]1 . Reported TGI: > 100 µM

Record CN(Cc1ccccc1)C(=S)S . Reported TGI: > 100 µM
